meta.source: the RNAGym collection of RNA variant scans (doi:10.7554/elife.80360)

B1: Twister Ribozyme (parent)
chain: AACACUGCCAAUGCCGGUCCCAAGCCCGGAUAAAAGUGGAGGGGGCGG

variants of: B1; assay: self-cleavage, relative activity (ratio to wild type); higher = more cleavage; co-transcriptional
What self-cleavage was measured for each of the following?

Request the reported self-cleavage associated with AACACUGUCAAUGCCGGUCCCAAGCCCGGAUAAAAGUGGAGGCGGCGG
0.101

Next variant: AACACUGCCAAUACCGGUCCCAACCCCGGAUAAAAGUGGAGGGGGCGG
0.129

Please answer likewise for AACACUGCCAAUGCCGGUCCCAAGCCCGGAUAAGAGGGGAGGGGGCGG
0.314

Same question for AUCACUGCCAAUGCCGGUCCCAAGCCCGGAUAAAAGUGGAGGGGGCGC please.
0.67

Same thing, different variant: AACACUGUCAAUGCCGGUCCCAAGCCCGGAUAAAAGUGGAGUGGGCGG
0.133

Next up: AACACUGCCAUUGGCGGUCCCAAGCCCGGAUAAAAGUGGAGGGGGCGG
0.203

Field entry: AACACAGCCAAUGCGGGUCCCAAGCCCGGAUAAAAGUGGAGGGGGCGG
0.0866

Here is the next variant: AACACUGCCAAUGCCGGUCCCAAGCCCGGGUAAAAGUGGACGGGGCGG
0.37

Follow-up entry: AACACUGCCAAAGCCGGUCCCAAGCCCGUAUAAAAGUGGAGGGGGCGG
1.13

For AACACUGCCAAUGCCGGUCCCACGCCCCGAUAAAAGUGGAGGGGGCGG then?
0.0761

Try the variant AACACUGCCAAUGCCGGUCCCAAGCCCGGAUAAAUGUGGAGGGGGCGC
1.07

Check AACACUGCCAAUGCUGGUCCCAAGCCCCGAUAAAAGUGGAGGGGGCGG too.
0.988

Would you kindly repeat that for AACACUGCCAAUACCGGUCCCAAGCCCGGAUAGAAGUGGAGGGGGCGG ?
0.943

Also, AACACUGCCAAUGCAGGUCCCAAGCCCGGAUAAAAGUGUAGGGGGCGG please.
0.172
